Test: Preclinical PK after intraperitoneal dosing of COMPOUND D, COMPOUND B and viloxazine
Format: in vivo, mouse
Conditions: CD-1, mouse, plasma, ip, 10.978 mg/kg, COMPOUND D IP 10.978 mg/kg; 0.250 h; individual mice; read-out: Plasma concentration of COMPOUND D
Measurement Label: concentration at 0.25 h (ng/mL)

>  <Compound>
CCOc1ccccc1OCC1CN(C(=O)OC(C)OC(=O)[C@H](N)C(C)C)CCO1 (stereo partly shown)

>  <Measurement Label>
concentration at 0.25 h

>  <Unit Spec>
ng/mL

>  <Experimental Value>
3.44

$$$$

====

Property: microsomal CLint at 1 μM; scope: individual molecules
Test: Metabolic stability in rat liver S9
Type: in vitro ADME, Sprague Dawley rat
Conditions: Sprague Dawley, pH 7.2; rat liver S9, 1 μM; read-out: CLint(LS9)

>  <Molecule>
CCOc1ccccc1OC[C@@H]1CN(C(=O)OC(OC(=O)[C@@H](N)C(C)C)C(C)C)CCO1 (stereo partly drawn) [COMPOUND B]

>  <microsomal CLint at 1 μM>
339 µL/min/mg

$$$$
>  <Molecule>
CCOc1ccccc1OC[C@@H]1CN(C(=O)OC(OC(=O)[C@H](N)C(C)C)C(C)C)CCO1 (stereo partly drawn) [COMPOUND C]

>  <microsomal CLint at 1 μM>
163 µL/min/mg

$$$$
>  <Molecule>
CCOc1ccccc1OC[C@@H]1CN(C(=O)OC(C)OC(=O)[C@@H](N)C(C)C)CCO1 (stereo partly drawn) [COMPOUND A]

>  <microsomal CLint at 1 μM>
161 µL/min/mg

$$$$

====

Assay: in vivo
Details: male, beagle, dog, plasma, po, 80 mg/kg

>  <Molecule>
CCOc1ccccc1OC[C@@H]1CN(C(=O)OC(OC(=O)[C@H](N)C(C)C)C(C)C)CCO1 (stereo partly shown) [COMPOUND C]

>  <MRT last [h]>
2.58

$$$$

====

Property: pIC50; scope: individual molecules
Molecular target: hNav1.5 (Homo sapiens)
Construct: CYL6004QP2DR
Sequence (Q14524 whole entry): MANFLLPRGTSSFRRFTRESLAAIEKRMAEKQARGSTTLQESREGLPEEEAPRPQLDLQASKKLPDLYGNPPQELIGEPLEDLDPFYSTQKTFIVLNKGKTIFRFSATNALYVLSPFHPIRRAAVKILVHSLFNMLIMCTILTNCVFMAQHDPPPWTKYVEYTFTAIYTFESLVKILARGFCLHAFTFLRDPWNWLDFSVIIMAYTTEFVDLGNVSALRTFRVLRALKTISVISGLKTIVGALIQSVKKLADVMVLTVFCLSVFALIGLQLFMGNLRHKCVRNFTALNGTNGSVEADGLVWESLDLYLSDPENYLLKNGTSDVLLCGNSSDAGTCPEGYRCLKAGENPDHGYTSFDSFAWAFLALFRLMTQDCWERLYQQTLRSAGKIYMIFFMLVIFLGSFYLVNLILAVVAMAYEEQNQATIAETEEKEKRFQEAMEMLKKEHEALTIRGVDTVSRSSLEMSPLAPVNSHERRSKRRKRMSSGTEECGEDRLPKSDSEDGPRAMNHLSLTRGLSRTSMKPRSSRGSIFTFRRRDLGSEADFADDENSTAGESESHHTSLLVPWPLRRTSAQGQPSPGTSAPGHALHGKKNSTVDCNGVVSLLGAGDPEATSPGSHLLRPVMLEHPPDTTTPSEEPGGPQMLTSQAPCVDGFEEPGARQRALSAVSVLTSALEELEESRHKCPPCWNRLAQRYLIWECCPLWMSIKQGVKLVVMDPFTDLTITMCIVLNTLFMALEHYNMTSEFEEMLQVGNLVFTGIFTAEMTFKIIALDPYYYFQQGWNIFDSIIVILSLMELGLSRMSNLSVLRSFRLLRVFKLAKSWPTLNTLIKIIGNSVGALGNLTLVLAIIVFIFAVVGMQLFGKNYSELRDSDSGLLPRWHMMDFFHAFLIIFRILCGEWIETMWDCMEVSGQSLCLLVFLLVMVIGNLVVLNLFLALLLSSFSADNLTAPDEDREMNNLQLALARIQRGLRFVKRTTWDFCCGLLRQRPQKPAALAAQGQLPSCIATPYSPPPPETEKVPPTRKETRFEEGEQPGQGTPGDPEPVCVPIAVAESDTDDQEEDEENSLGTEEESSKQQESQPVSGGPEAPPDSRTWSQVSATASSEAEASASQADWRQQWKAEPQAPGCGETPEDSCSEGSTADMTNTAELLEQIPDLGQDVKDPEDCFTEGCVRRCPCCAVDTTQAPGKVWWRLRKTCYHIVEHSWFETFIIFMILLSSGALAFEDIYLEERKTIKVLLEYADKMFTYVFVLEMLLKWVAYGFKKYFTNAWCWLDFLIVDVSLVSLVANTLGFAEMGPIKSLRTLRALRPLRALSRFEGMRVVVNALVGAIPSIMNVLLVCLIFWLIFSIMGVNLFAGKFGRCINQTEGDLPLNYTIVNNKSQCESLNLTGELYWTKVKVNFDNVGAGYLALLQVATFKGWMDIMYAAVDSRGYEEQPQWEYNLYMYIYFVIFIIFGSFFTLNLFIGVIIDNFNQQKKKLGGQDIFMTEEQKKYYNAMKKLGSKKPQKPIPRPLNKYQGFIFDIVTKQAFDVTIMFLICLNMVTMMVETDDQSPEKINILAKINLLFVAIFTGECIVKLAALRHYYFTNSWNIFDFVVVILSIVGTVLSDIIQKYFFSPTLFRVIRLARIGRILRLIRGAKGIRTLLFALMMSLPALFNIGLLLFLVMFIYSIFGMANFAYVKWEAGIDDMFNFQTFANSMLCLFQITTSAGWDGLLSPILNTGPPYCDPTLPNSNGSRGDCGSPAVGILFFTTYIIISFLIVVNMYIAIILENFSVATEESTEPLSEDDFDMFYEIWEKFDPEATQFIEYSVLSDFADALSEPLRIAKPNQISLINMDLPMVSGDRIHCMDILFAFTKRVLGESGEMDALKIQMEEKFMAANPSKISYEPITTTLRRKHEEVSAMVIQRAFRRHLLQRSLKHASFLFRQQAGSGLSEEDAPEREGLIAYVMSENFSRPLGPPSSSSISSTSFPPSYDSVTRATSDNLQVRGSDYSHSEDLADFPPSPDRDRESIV
Test: Nav1.5 human sodium ion channel cell based automated patch clamp assay (QPatch HT)
Conditions: Antagonist, Pulse 1 (open state), read-out: Estimated IC50 (Pulse 1)
pIC50: −log10 of the molar value.

>  <Molecule>
CCOc1ccccc1OC[C@@H]1CN(C(=O)OC(C)OC(=O)[C@@H](N)C(C)C)CCO1 (some centres unmarked)

>  <Assay Target>
hNav1.5 (Homo sapiens)

>  <pIC50>
< 4.00

$$$$
>  <Molecule>
CCOc1ccccc1OCC1CN(C(=O)OC(OC(=O)[C@@H](N)C(C)C)C(C)C)CCO1 (some centres unmarked)

>  <Assay Target>
hNav1.5 (Homo sapiens)

>  <pIC50>
4.03

$$$$
>  <Molecule>
CCOc1ccccc1OC[C@@H]1CN(C(=O)OC(OC(=O)[C@H](N)C(C)C)C(C)C)CCO1 (some centres unmarked)

>  <Assay Target>
hNav1.5 (Homo sapiens)

>  <pIC50>
< 4.00

$$$$
>  <Molecule>
CCOc1ccccc1OC[C@@H]1CN(C(=O)OC(OC(=O)[C@@H](N)C(C)C)C(C)C)CCO1 (some centres unmarked)

>  <Assay Target>
hNav1.5 (Homo sapiens)

>  <pIC50>
< 4.00

$$$$
>  <Molecule>
CCOc1ccccc1OCC1CN(C(=O)OC(C)OC(=O)[C@H](N)C(C)C)CCO1 (some centres unmarked)

>  <Assay Target>
hNav1.5 (Homo sapiens)

>  <pIC50>
< 4.00

$$$$

====

Assay: Preclinical PK after intraperitoneal dosing of COMPOUND D, COMPOUND B and viloxazine
Format: in vivo, mouse
Conditions: CD-1, mouse, plasma, ip, 10.978 mg/kg, COMPOUND D IP 10.978 mg/kg; mean; read-out: MRT0-last, plasma COMPOUND D

>  <Compound>
CCOc1ccccc1OCC1CN(C(=O)OC(C)OC(=O)[C@H](N)C(C)C)CCO1 (stereo partly shown)

>  <Unit Spec>
h

>  <MRT last>
6.5

$$$$

====

Experiment: Preclinical PK after intraperitoneal dosing of COMPOUND D, COMPOUND B and viloxazine
Format: in vivo, mouse
Settings: CD-1, mouse, plasma, ip, 10.978 mg/kg, COMPOUND D IP 10.978 mg/kg; mean; read-out: Tmax, plasma COMPOUND D

>  <Molecule>
CCOc1ccccc1OCC1CN(C(=O)OC(C)OC(=O)[C@H](N)C(C)C)CCO1 (stereo partly shown)

>  <Tmax (h)>
12.5

$$$$

====

Target: hNav1.5 (Homo sapiens)
Construct: CYL6004QP2DR
Assay: Nav1.5 human sodium ion channel cell based automated patch clamp assay (QPatch HT)
Conditions: Antagonist, Pulse 2 (inactivated state), read-out: Estimated IC50 (Pulse 2)
Response field label takes condition met when IC50 is strictly below 8 µM and condition not met in all other cases.

>  <Compound>
CCOc1ccccc1OC[C@@H]1CN(C(=O)OC(OC(=O)[C@H](N)C(C)C)C(C)C)CCO1 (some centres unmarked)

>  <Assigned Class>
condition not met

$$$$
>  <Compound>
CCOc1ccccc1OC[C@@H]1CN(C(=O)OC(C)OC(=O)[C@@H](N)C(C)C)CCO1 (some centres unmarked)

>  <Assigned Class>
condition not met

$$$$
>  <Compound>
CCOc1ccccc1OC[C@@H]1CN(C(=O)OC(OC(=O)[C@@H](N)C(C)C)C(C)C)CCO1 (some centres unmarked)

>  <Assigned Class>
condition met

$$$$
>  <Compound>
CCOc1ccccc1OCC1CN(C(=O)OC(C)OC(=O)[C@H](N)C(C)C)CCO1 (some centres unmarked)

>  <Assigned Class>
condition not met

$$$$
>  <Compound>
CCOc1ccccc1OCC1CN(C(=O)OC(OC(=O)[C@@H](N)C(C)C)C(C)C)CCO1 (some centres unmarked)

>  <Assigned Class>
condition met

$$$$

====

Assay: Metabolic stability in human liver S9
Type: in vitro ADME
Conditions: pH 7.2; 1 μM in Human liver S9 fractions
Property: half-life at 1 μM; scope: individual molecules

>  <Molecule>
CCOc1ccccc1OCC1CN(C(=O)OC(OC(=O)[C@@H](N)C(C)C)C(C)C)CCO1 (some centres unmarked)

>  <half-life at 1 μM [min]>
8.9

$$$$
>  <Molecule>
CCOc1ccccc1OCC1CN(C(=O)OC(C)OC(=O)[C@H](N)C(C)C)CCO1 (some centres unmarked)

>  <half-life at 1 μM [min]>
1.86

$$$$

====

Experiment: Preclinical PK after intraperitoneal dosing of COMPOUND D, COMPOUND B and viloxazine
Format: in vivo, mouse
Details: mouse, plasma, ip, 10.948 mg/kg, COMPOUND B IP 10.948 mg/kg; mean; read-out: Tmax, plasma COMPOUND B

>  <Compound>
CCOc1ccccc1OC[C@@H]1CN(C(=O)OC(OC(=O)[C@@H](N)C(C)C)C(C)C)CCO1 (stereo partly shown) [COMPOUND B]

>  <Tmax>
20 min

$$$$

====

Assay: Preclinical PK after intraperitoneal dosing of COMPOUND D, COMPOUND B and viloxazine
Type: in vivo, mouse
Conditions: CD-1, mouse, plasma, ip, 10.978 mg/kg, COMPOUND D IP 10.978 mg/kg; 1.00 h; individual mice

>  <Compound>
CCOc1ccccc1OCC1CN(C(=O)OC(C)OC(=O)[C@H](N)C(C)C)CCO1 (stereo partly shown) [COMPOUND D]

>  <concentration at 1 h / ng/mL>
5.74

$$$$

====

Assay: Enzyme and uptake assays
Assay type: biochemical
Settings: human recombinant; [3H]NE incorporation into cells; read-out: IC50, Norepinephrine transporter uptake (h)
Property: IC50; scope: individual molecules
Measurement Label: IC50 (nM)

>  <Molecule>
CCOc1ccccc1OC[C@@H]1CN(C(=O)OC(OC(=O)[C@@H](N)C(C)C)C(C)C)CCO1 (some centres unmarked) [COMPOUND B]

>  <Measurement Label>
IC50

>  <Experimental Value>
1900

$$$$
>  <Molecule>
CCOc1ccccc1OC[C@@H]1CN(C(=O)OC(C)OC(=O)[C@@H](N)C(C)C)CCO1 (some centres unmarked) [COMPOUND A]

>  <Measurement Label>
IC50

>  <Experimental Value>
390

$$$$
>  <Molecule>
CCOc1ccccc1OCC1CN(C(=O)OC(OC(=O)[C@@H](N)C(C)C)C(C)C)CCO1 (some centres unmarked) [COMPOUND E]

>  <Measurement Label>
IC50

>  <Experimental Value>
2600

$$$$
>  <Molecule>
CCOc1ccccc1OC[C@@H]1CN(C(=O)OC(OC(=O)[C@H](N)C(C)C)C(C)C)CCO1 (some centres unmarked) [COMPOUND C]

>  <Measurement Label>
IC50

>  <Experimental Value>
1800

$$$$
>  <Molecule>
CCOc1ccccc1OCC1CN(C(=O)OC(C)OC(=O)[C@H](N)C(C)C)CCO1 (some centres unmarked) [COMPOUND D]

>  <Measurement Label>
IC50

>  <Experimental Value>
870

$$$$
